system_name: Melanocortin receptor 4 (Homo sapiens, UniProt P32245)
Sequence (P32245 whole entry): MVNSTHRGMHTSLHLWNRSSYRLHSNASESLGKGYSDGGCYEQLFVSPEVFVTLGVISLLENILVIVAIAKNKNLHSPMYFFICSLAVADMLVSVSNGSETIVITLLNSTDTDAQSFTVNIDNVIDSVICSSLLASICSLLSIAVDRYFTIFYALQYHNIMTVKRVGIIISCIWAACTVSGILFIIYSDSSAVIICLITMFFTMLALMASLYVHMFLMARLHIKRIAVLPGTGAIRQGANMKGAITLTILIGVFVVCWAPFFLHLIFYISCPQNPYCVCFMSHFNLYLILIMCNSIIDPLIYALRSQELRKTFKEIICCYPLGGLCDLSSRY
protocol_description: Binding affinity towards human melanocortin 4 receptor expressed in HEK 293 cells was determined by using [125I]NDP-MSH as radioligand
Assay type: cell-based, HEK293
outcome_measure: Ki (nM)
Kindly answer with a numeric value in nM, unit omitted.

input: Field: Ki (Melanocortin receptor 4 (Homo sapiens, UniProt P32245)). Entry: O=C(N[C@H](Cc1ccc(Cl)cc1)C(=O)N1CCN(c2ccccc2CNCCc2cccs2)CC1)C1CCCN1 (stereo not given in full)
output: 50

input: Report Ki for "NCC(=O)N[C@H](Cc1ccc(Cl)cc1)C(=O)N1CCN(c2ccccc2CNCCc2cccs2)CC1" tested on Melanocortin receptor 4 (Homo sapiens, UniProt P32245).
output: 44

input: For Melanocortin receptor 4 (Homo sapiens, UniProt P32245), provide Ki of NCC(Cc1ccc(Cl)cc1)C(=O)N1CCN(c2ccccc2CNCCc2cccs2)CC1 (stereo not given) please.
output: 6400

input: # returns recorded Ki (system: Melanocortin receptor 4 (Homo sapiens, UniProt P32245)) for CC(NCc1ccco1)c1ccccc1N1CCN(C(=O)[C@@H](Cc2ccc(Cl)cc2)NC(=O)CCN)CC1 (stereo not given in full)
output: 140

input: Field: Ki (Melanocortin receptor 4 (Homo sapiens, UniProt P32245)). Entry: NC(Cc1ccccc1Cl)C(=O)N1CCN(c2ccccc2CNCCc2cccs2)CC1 (stereo not given)
output: 1000
